Values from PubChem BioAssay

- assay: binders of probe aFST on microarray, primary screen, stem cell growth factor project, biochemical, small-molecule microarray, fluorescence 635/667 (AID 1086);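 also: score merges 667 nm fluorescence with signal-to-noise of each printed compound spot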
- measurement context: higher = more signal
parameter measured: composite z-score

[[record]]
smiles_string = "COc1ccc([Si](C)(C)[C@@H]2[C@@H](CC(=O)N3Cc4ccccc4C[C@H]3CO)O[C@]3(C(=O)N(C)c4ccccc43)[C@H]2C)cc1"
parameter_measured = "composite z-score"
test_value = 0.714

[[record]]
smiles_string = "CCOC(=O)C[C@H]1[C@H](OC(=O)Cc2ccc3c(c2)OCO3)[C@@H](NC(=O)CC(C)C)c2cc(OCCCO)ccc2N1C(=O)Cc1ccc(OC)cc1"
parameter_measured = "composite z-score"
test_value = -0.207

[[record]]
smiles_string = "COCCOC(=O)N1C(=O)[C@@]2(c3cc(C#CC4=CCCCC4)ccc31)[C@H](c1ccccc1OCCO)N1[C@H](c3ccccc3)[C@H](c3ccccc3)OC(=O)[C@H]1[C@@H]2C(=O)N1CCCCCCC1"
parameter_measured = "composite z-score"
test_value = 0.497

